Entries and their protease stability score
Test: protease stability score; higher = more stable; yeast display proteolysis, trypsin and chymotrypsin;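 further: relative to predicted unfolded state with 0 unfolded-like and 1 meaning tenfold more protease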
parameterMeasured: protease stability score

> print(dat)
                               sequencedata  reportedresult
1  SDEDEDARRVMELLLELFETGNWRELSKLADPHVRMEIDGQDFHGRELFEHFVRELIEKFKGAKLELRVHTLDLINGVMYSDIHIHLNVNGRKLDIRSHFRILKIDGRWLTRSFHFK            1.25
2  DEDTKMSEEALRILVEIWRTGDEDRFLELADPHTRILINGRELHGMEFFVTWLRKVKNLKIERIQLDHVRFIDGRAELETTIRLRYGDKHDDLTFKFISDKFDGRWVLSEIIII            2.15
3  DELKEILLRIIEKMLHALLTGNFEELLKNVDPRTRNDINGVDAVGRENIKRVWEEILRRIDHWEEVRIEDFRVQGDKVHIDGRLIMRVDGRREDTTTHLHIIVFNGRVESIKFEIR            1.57
4  SEDEHFFRLVTRWIVRALLTGDEDSLQELLDPHVKFEINGRDFHGRESVYRAVLEIRRNDLRMKREHYHVQGDFVRSELTIEEELVIGDKIVTIESRLLLIILKINGRWYLEKMEVHFK            1.41
5  DEKEEHFTTMMEIWLEIFRTGDWERLEKLMDPNVRHREVVDGRHLHLHGMENVSRLLHERENKLGANHIDLTHADIVNGRASIEGRVNYGDKRHKIRFDIHIVNGRVQHIQDIKI          -0.034

====

Recorded protease stability score values for a group of sequences are listed next.
Assay: protease stability score; higher = more stable; yeast display proteolysis, trypsin and chymotrypsin;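 further: relative to predicted unfolded state with 0 unfolded-like and 1 meaning tenfold more protease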
parameterMeasured: protease stability score

> print(dat)
                               sequencedata  reportedresult
1  SEDHEEVRKVTKVYLELFETGDEEELMKLADPEVRLHINGRDLHGREWMERAIRELLEYYGVKHIESWTIHDITIQGDKAVMDTSVKIRVNGREHELKMHIYSRKFDGRWFLTSVRFH            1.26
2  SEHEEESHIAFEIYQKWVQTGDWEQLDHNFDPDTRVEINGVEHVGMEHFHELEKRLHEHLGISKINSHVKHFEIFDGRLELFTIMEFNGRRIRTHHIAHKVNGRWRIKSIRFE            1.43
3  SEEEKESEDSMRILEHYFHTGNEESLLKLADPHVRSEINGKIHHGMDLHNEIWKHFVQQFKGARPTSLNFKDVEIQGNKAEFHIELVLTIGNYSIHLEMHIFNEKVDGRWLIRSTYIR            1.08

====

Experiment: protease stability score; higher = more stable; yeast display proteolysis, trypsin and chymotrypsin;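 further: relative to predicted unfolded state with 0 unfolded-like and 1 meaning tenfold more protease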
Lab note: compare protease stability score against 1. Equal or greater, write True. Smaller, write False.

> print(dat)
                                sequencedata  category
 1  DEEERLRHEALKEWLETLVTGDERIIMEQLDPDARIDINGQEIHGMELFAKFMSEMGINVFDLKRTTIQGDKLRIEGVIKFNGKTHRVHVRSTKVDGRWRNKEVRVE      True
 2  NEDEHRARFIFRILTKAILTGDEDFLHRFADPNVRIHVNGVNLIGMEEWLRHLKELRIHFITSHVREIDKIDGVMIVHGEFVIDGEVNGKRDTWHTEIHLVITKVNGRWILHELHTR      True
 3  SETEEWQHQILEILERIQKTGDPHEFMHNADPHVRLHVNGRDFHGMELFKEMFEKFGAKVSHLRDVDIQGDKIHVDGELEFNGVTHKSHVDARKVDGRWVLTRYTIK     False
 4  DELERDVKQVWDLLLESSRTGDEEVLDKMLDPNARMKVNGQESHGRHAVELLSERIDHIHHIEIERFRTQGNKIEIDIHIDGEVNGRRIRTHMHVIIRKIDGRWFVESWEMK     False
 5  SEEEEIARKIADIFFKVMQTGDEDHWLELFDPHTRFESDFNGRTVEIHGRERVREWKRKLEEDLGLTRFEIILRDSHVVNGVIHMDIEVRINGKTRRWIIDLIVINGRVKSLRVEIR      True
 6  SEHDELLNRLSELLTHLILTGDWKTFSELADPNVLAITDINGRTRHHHGREHFLNLLEELLREFGIDHLWITHIDAFNGVSHTHVNIEVNGRTHELRLHIVIIDGKVHEVHFSFK     False
 7  DHEDHLSELAEHLIHHHWLTGDEHLLERMADPHAQIIIGDKHLHGREEVSRWLIEFMHKFKNMRLQIDHRHLIDGRLHVEVTINIGDKRLKVHRHSIKINGQWHLKSIIIE      True
 8  SDEHEWERHLYHVLIHAVNTGDEDLVTEMMDPHVRTDINGVELHGRNELSRQLKEMGIKHLEIEHLDFVGNFLVSQVRVDVNGVDYKSEIIALKINGKWLLSELRLE      True
 9  SEVEEEMEEILKKLLTAFRTGDEKTLEDLLDPHVRLEIGDKTHVGWRDIAEFLRRHIERVDHMRINIDHMEIQGEKIHIDGTLHFWIGDKRHHEKVHLIFVIVNGRLKKIHIHKI      True
10  SEREHLADRFVKELTTALQTGDEEKIREMFDPHMKLIINGVTFHGWEELEKIRKRVDHIEHVEVRIEDVRIINGVVEIKGELHVHERVGDKIIDRSNDQTYFVEKVNGRWILKQVELH      True
11  DEDERNVRDVAYLLLHALWTGDEDMLRHLIDPDVRFHIDGRHHHGWLRVLEMFREIRIHDFRMHDEKFRIIGDKAEARFDGESIVVIDGKEVDRRVEERYIIVKVNGQWRLKMIEVHLR      True
12  EEEEQHMKEMAHIFIELMETGDEERLHKYFDPNWRFRIGDKHHHGRETYIHWLHQLGVDKVKVHLRHLDFQGDKLRIDSEREFDGKIEKIDIILIKFNGRWIINEIRVD      True
13  DDTRELSKHWHERWLHAHETGDEELLLSLLDPHVRLEVGDKHLIGRDKLKWHMEEEIEFFKNAKLHVRRVSIQGNKIEMELEVRIDGVRHEVHIHYDIIDGRITRFEVRIV     False
14  NEEEKIIKKDIEKEITAWETGDFDTLDHLLDPHARMDINGKDLHGREVLKTHFHEEWNRLGLEKVEIHIQDFRVIDGRVHIDGYMNVNGRHQKVRFIARKVNGRWIIHEVEFR      True
15  DDERRDTKLAIDLWVETWHTGDEQMFEDLADPHTRIIIGDKEHVGREEAVRYSSELIRRLGANHVDVTFRETRMYNGRIDVKGEINLHIGDKDHHREVHVYSRKIDGRWVLERIEFR      True
16  DEEESRIEKVNRRWLRAYATGDEDTLNHLIDPRVRMDIDGVDLHGREEFEEWLRRIDVIRTFELKFMHIQGEKVNNDVQFDTRIDGQNRSVRNKLIIEKVDGKWVVKTIHFI     False
17  SEEEESWRRIAEEELRIRKTGDEDRFRELHDPSVKIDWNGQIIVGWEELHEILRHIAERYPNLRFEVTHSDVIDGRVHIDGRLNVNGVTLEFHIESVIVNGRTKSIRIEVR     False
18  SEEEEEAWRSTEKWTHSEKTGDFESLLRLADPNARVHVNGRELVGMETVIRRFIEHVERFKNIRIQHHTEHIEFYGDKVIIDSRLHISIGDKTITITIELVTTKFNGRWLLQEITIK     False
19  DDIHRIIKTALELWLRVLETGDERLIHELLDPDARFVINGKFYHGREVWEEERRQIDHIRMDTFHLKHIDLVNGRLRIEGHIVFTVHVNGRTTRREEDVHFILTKFNGKWEMQSLNIE      True
20  SEDHERERRVNEEFLTAMWTGDEKWIMNLADPNVRTEWNGVENIGRETISEHLDHQKKRLGVKHIEIKHVEIINGVLHMHGRLDVNGVETEVIIRSFIIDGRLTELIFEIR     False
21  DEEEELNRRLVELMIRWHETGDFDMIEKYMDPDAKLNINGQEIHGMEKITNLFLWRFEFFKGAQYRMNRVRVQGDKASIDGRLNVDGRTHSIEIRIVIINGRNHSIEIHDR      True
22  DEEYDIAEEILHLLVELILTGDEHEILRYADPNVRLIIGDKDIHGMDWVSRFNMHLRLDDMKWELKRAHVYNGVIDNRGHLVMHGEIDGRHDTIKRETRILINKVNGRWNIREILIH     False

====

Experiment: protease stability score; higher = more stable; yeast display proteolysis, trypsin and chymotrypsin;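 further: relative to predicted unfolded state with 0 unfolded-like and 1 meaning tenfold more protease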
Returns one of met or not met; met when protease stability score is >= 2.

> print(dat)
                                sequencedata  category
 1  HEEEKHAHEVLQLFIESVETGDWRMWEHLADPHVRLEVNGQEVIGREDALRWLEELLKKLGVDHFKLELEDHHIQGEKVRSITRSHIRVNGVRIDRTTHVIIVVINGRLKHIEVRER   not met
 2  DEHEHVVERMARIQYKEMVTGDEELWYHLADPRVRYEIGDKEIIGREEVFRFIIEHKRDLGISKIDVRIRDIDLQGEWAIIDGTININGRKLETTIHLLVVDGRLKTFSLEIK   not met
 3  DESEEESHKVAELVIKIWETGDEHIWENLADPHTRYEIDGKIIHGREIASHIMRIFLERVKNVTFRIKDVKRHVYNGVIEVRNETELNIGDKRIDTHIMVILRKVNGRWYMTEVRFQID   not met
 4  SEEDKHHETLARLIIEALTTGDEESLMHLMDPNARIQIGDKDNHGWRSLHIHHRELGIDHKEIRVREVRFVNGKIHIDSQVHFHFNGVTFDVRTHIILVVINGKLTKMWVIIG   not met
 5  SEDNEIIHEMVQLFVDLFFTGDWEMLLSLFDPNVRMIVNGKTIHGRENIAHEVREFLERFKNVRFRDATIEHYSWQGDKLHAQIHIEGEINGRDRHSNVHIHITKIDGKWLITRIEVR       met
 6  DEDQEEMYKALNHLLTLLKTGDEHVLKRLIDPHVRVEIDGKDRHGMSFLLEIIKEELIRIDHIKDFRIHHVEMVGDKAENHVKLIGEWNGKEFRLRMHVYSWKFDGKWIMKSIKIE   not met
 7  SETERKVREVLRLLDESLTTGDEREFRHLFDPNARLEIGDWEIHGMEIIDRLLHEIRIEVNDSKVRRIRIQGDKVEVHTRVDLKFNVDGVTERHDRDQHLLILKVNGRWLIKNFYIE   not met
 8  DEEEEEDKRMADEIVHSFLTGNEDWLHELADPNTRSEVGDKEAHGRENMVKLLRIHLRELGVDHIELTHVRVHSQGDKIIVIVHGKVKIGDKILELHIHIIVLKIDGRWLLHSVRIEIN   not met
 9  SEEEEEMRRWFEILIRAIRTGDEHVLKRLIDPDAQEDVNGKRIHGMEDMSRLLSEMRIKSWEIRRSHFVGNKIELDGHRRGHVNGRDIDDHVIIHILKIDGKWTLHRVEVS       met
10  SETEETSRHLMEMFEKSMLTGDEEHYKRMADPNVRMHINGQEYVGWEDFTRILREIRTEEVRFKVKRYDLVGEYLHVDLRIERDTHVNGVKVEFRTEAELIVVKVDGRWIVKEVRIK   not met
11  DEDERNAHRMTQILIRSQETGDEHELMRLLDPHARVIIGDKHIHGWEEFSKLEHEYWERYKNMTLHVRLRHVEVINGVAHIHTHITININGKEDRFEIEIFFLKINGRWVLHSFRVD   not met
12  SEQEHFDRLAFKLLLHSIHTGDWRLLTEEFDPNTLIIIGEKIHHGMEFVREHIEVLGADHVDIEIHIRHVRHQGNKADMDMQVDIDIDVNGRRIRIRSRRRYISLKVDGRWVTTSLEIK   not met
13  DSLEDIFKLAVDDLEFLYETGDEEMTSQMADPNVRVIFNGRDFWGWHYLLKIFSELIKKLGIDHIRLEIDHVHLQGDKVDIHGTLRNHIGDFIFVHHTTHFLVKIDGRWFIRSVKIR       met
14  SEEERLAREISKELVEILLTGDEDRLLELADPDVRHILLFNGRDDDQHGRENMSRAEKLFREWLGVKHVDVTHVEVQGDKIHNDTVVDINGVRFEFRIIWVVVNGRVKVWRVEMR   not met
15  NEKEEESKRFIELFMELIVTGNEEVLYKLADPTVQWRADVDGQEINLHGWEHIHDEINKFPNITLELEEREIQGDKVDIRTRLHIGDKTRDTRVIIIVINGRVKQIHIEIR       met
16  SDDEREDRIAIDILLRSTETGDEDTVRHMFDPNARVDVDGREIHGRDASKLFMERVDHIHEVKIDDIKTINGRVHNEGTWYGEYGDKKSELKVHWVLLKIDGRWLIKEVRIR   not met
17  DEHKESLKRAFELWVETVKTGDEQRTEELIDPHVRVVIGDKEIHGMKETSRHILEMRVKSFRLRHYHFVNGRVNILGEIDGEFDGRRRDVDITIHIQKFNGRWLIDELHFG       met
18  SEEEELAERFYEKFLRLARTGDEDELKRLFDPHVRHYVDGRELIGRELLVKFLIEWRVHDSEIREVRIQGDKLWFNTVIHGNFNGVETKQEMEVRSRKIDGQWFATEVQIK   not met
19  SEVQELAERMFRFLLKVFETGNEDRLTELMDPNTLQIIGDKRNHGRDLYLRTVFEKVEHARMRIEFKEVHVINGQINVDGILWLEFDGRRIFFRVHLELTVVNGVLKEEHVTIH   not met
20  DEDTRKIYHWAELIVELLMTGDEDILHELADPDVKVHINGVTLHGREEADKFLEEWLRRFKNIQIRIRRITVINGRVDVESEVNVGDKRKDSRIHATVVNGRWKIISMDDH   not met
21  DEDDENVEQFIELFNEVMNTGDWRSLKRMIDPNARSRIGEKHLIGREMLEDFRHQADHVKIRDMKIERSHVINGRVLVDGIVHGEENFNGRRFLVNREVHLVVVKVNGRWFLRSIEFG   not met
22  DEESEKVEHFLEELFRAMETGDEDQFRKLMDPNVRASYGDKEVHGRNDILHWIREYRERVKNLKLEVHRVRVRIYNGRVEIEMDTILRINGKEHKVTLTFDVTKVNGRWFIEHVEVEVR   not met
